assayedSystem: wild type human RORγt LBD (Homo sapiens)
Construct: expressed in transfected cells; host or cells: HEK293T
assayName: RORγt (LBD) Reporter Assay (GAL4-luciferase, HEK293T cells)
Type: cell-based
experimentalConditions: HEK293T cells
The reader will find reported IC50 values listed item by item below.
reportedProperty: IC50 (µM)

> print(dat)
                                   compound  endpointresult
1  Cc1cc(C(O)(c2ccc(Cl)cc2)c2cncn2C)cc2c(Cl)c(Cc3ccc(-n4cccn4)cc3)c(N3CCC3)nc12 (single isomer, unassigned) [Example 136c]            0.14
2  COc1nc2ccc(C(O)(c3cccnc3)c3ccc(Cl)c(Cl)c3)cc2c(Cl)c1Cc1ccc(-n2cccn2)cc1 (single isomer, unassigned) [Example 161c]           0.078
3  Cc1cc(C(O)(c2ccc(Cl)cc2)c2cncn2C)cc2c(Cl)c(Cc3ccc(-n4cccn4)cc3)c(N3CCC3)nc12 (single isomer, unassigned) [Example 136b]               1

---

Each entry below carries its reported log10 Kd.
assayedSystem: wild type human RORγt ligand binding domain (RORyt LBD) (Homo sapiens, UniProt P51449)
Construct: His-tag (N); TurboTEV protease cleavage site (ENLYFQG) (N)
Sequence (P51449 258-518): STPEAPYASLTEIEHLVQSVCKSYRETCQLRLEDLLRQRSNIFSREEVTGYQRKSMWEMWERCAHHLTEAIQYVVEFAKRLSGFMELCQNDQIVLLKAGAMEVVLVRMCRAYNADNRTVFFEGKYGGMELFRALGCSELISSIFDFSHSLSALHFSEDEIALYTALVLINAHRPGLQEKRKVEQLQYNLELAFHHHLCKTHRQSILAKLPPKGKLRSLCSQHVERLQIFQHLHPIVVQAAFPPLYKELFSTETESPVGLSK
assayName: RORγt ThermoFluor assay (thermal shift, binding affinity KD)
reportedProperty: log10 Kd (log10 of the value in nM)

compound	assayedSystem	endpointResult
COc1nc2ccc(C(O)(c3cnnn3C)C3CN(C(=O)OC(C)(C)C)C3)cc2c(Cl)c1Cc1ccc(C(F)(F)F)cc1 (stereo not shown)	wild type human RORγt ligand binding domain (RORyt LBD) (Homo sapiens, UniProt P51449)	0.72
COc1nc2ccc(C(O)(c3cnc(C)n3C)c3cnc(C)n3C)cc2c(Cl)c1Cc1cccc(C(F)(F)F)c1	wild type human RORγt ligand binding domain (RORyt LBD) (Homo sapiens, UniProt P51449)	-1.39
COc1nc2ccc(C(O)(c3cnc(C)n3C)c3cnc(C)n3C)cc2c(C#N)c1Cc1cccc(C(F)(F)F)c1	wild type human RORγt ligand binding domain (RORyt LBD) (Homo sapiens, UniProt P51449)	-1.26
COc1nc2ccc(C(O)(c3cnnn3C)c3cnc(C)n3C)cc2c(C#N)c1Cc1ccc(F)cc1 (single isomer, unassigned) [Example 66c]	wild type human RORγt ligand binding domain (RORyt LBD) (Homo sapiens, UniProt P51449)	0.34
Cc1ccc(C(O)(c2ccc3nc(C)c(Cc4ccc(C(F)(F)F)cc4)c(Cl)c3c2)c2cnnn2C)c(C)n1 (single isomer, unassigned) [Example 28c]	wild type human RORγt ligand binding domain (RORyt LBD) (Homo sapiens, UniProt P51449)	-0.92
Cn1cncc1C(O)(c1ccc(C(F)(F)F)nc1)c1ccc2nc(C(F)(F)F)c(Cc3ccccc3)c(C#N)c2c1 (single isomer, unassigned) [Example 108c]	wild type human RORγt ligand binding domain (RORyt LBD) (Homo sapiens, UniProt P51449)	1.66
COc1nc2ccc(C(O)(c3cnc(C)n3C)c3cnc(C)n3C)cc2c(C#N)c1Cc1ccc(C(F)(F)F)cc1	wild type human RORγt ligand binding domain (RORyt LBD) (Homo sapiens, UniProt P51449)	-1.89
COc1nc2ccc(C(O)(c3ccccc3)C3CCN(C(C)=O)CC3)cc2c(Cl)c1Cc1ccc(F)cc1 (stereo not shown)	wild type human RORγt ligand binding domain (RORyt LBD) (Homo sapiens, UniProt P51449)	1.00
CC(=O)N1CC(C(O)(c2ccc3nc(C)c(Cc4ccc(C(F)(F)F)cc4)c(Cl)c3c2)c2cnnn2C)C1 (stereo not shown) [Example 32a]	wild type human RORγt ligand binding domain (RORyt LBD) (Homo sapiens, UniProt P51449)	0.04
COc1nc2ccc(C(O)(c3cnnn3C)c3cnc(C)n3C)cc2c(Cl)c1Cc1ccc(C(F)(F)F)nc1 (single isomer, unassigned) [Example 43c]	wild type human RORγt ligand binding domain (RORyt LBD) (Homo sapiens, UniProt P51449)	-0.02
COc1nc2ccc(C(O)(c3ccc(C)nc3C)c3cnnn3C)cc2c(Cl)c1Cc1ccc(S(C)(=O)=O)cc1 (single isomer, unassigned) [Example 117b]	wild type human RORγt ligand binding domain (RORyt LBD) (Homo sapiens, UniProt P51449)	3.11
Cc1ccc(C(O)(c2ccc3nc(NC4CC4)c(Cc4ccc(C(F)(F)F)cc4)c(Cl)c3c2)c2cnnn2C)c(C)n1 (stereo not shown) [Example 143a]	wild type human RORγt ligand binding domain (RORyt LBD) (Homo sapiens, UniProt P51449)	0.86
Cc1cc(C(O)(c2ccnc(C(F)(F)F)c2)c2cncn2C)cc2c(C#N)c(Cc3ccc(-n4cccn4)cc3)c(C#N)nc12 (single isomer, unassigned) [Example 83c]	wild type human RORγt ligand binding domain (RORyt LBD) (Homo sapiens, UniProt P51449)	2.65

---

assayedSystem: wild type human RORγt LBD (Homo sapiens, UniProt P51449)
Construct: expressed in transfected cells; host or cells: HEK293T
assayName: RORγt (LBD) Reporter Assay (GAL4-luciferase, HEK293T cells)
Assay type: cell-based
experimentalConditions: HEK-293T, read-out: RORγt (LBD) Reporter Assay, % inhibition @ 6 µM, 6 µM compound concentration
Below is a list of entries, each paired with its recorded inhibition at 6 µM value.
reportedProperty: inhibition at 6 µM (%)

> print(dat)
                                   molecule  unitabbrev  endpointresult
1  COc1nc2ccc(C(O)(c3ccc(C#N)cc3)c3cncn3C)cc2c(Cl)c1Cc1ccc(-n2cncn2)cc1 (single isomer, unassigned) [Example 14b]           %             105
2  COc1nc2ccc(C(O)(c3cnnn3C)c3cnc(C)n3C)cc2c(Cl)c1Cc1ccc(F)cc1 (racemic) [Example 65a]           %              74
3  COc1nc2ccc(C(O)(c3sc(C)nc3C)c3cnnn3C)cc2cc1Cc1ccc(C(F)(F)F)cc1 (racemic) [Example 92a]           %             101
4  COc1nc2ccc(C(O)(c3ccc(C)nc3C)c3cnnn3C)cc2c(Cl)c1Cc1ccc(-n2cccn2)cc1 (stereo not shown) [Example 17a]           %              99
5  COc1c(Cc2ccccc2)c(C(F)(F)F)nc2ccc(C(O)(c3ccc(C(F)(F)F)nc3)c3cncn3C)cc12 (stereo not shown) [Example 106a]           %              84
6  Cn1cncc1C(O)(c1ccc(C(F)(F)F)nc1)c1ccc2nc(C(F)(F)F)c(Cc3ccccc3)c(Cl)c2c1 (stereo not shown) [Example 105]           %              38
7  COc1nc2ccc(C(O)(c3ccc(C)nc3C)c3cnc(C)n3C)cc2c(Cl)c1Cc1ccc(C(F)(F)F)cc1 (racemic) [Example 57a]           %             100

---

assayedSystem: wild type human RORγt ligand binding domain (RORyt LBD) (Homo sapiens, UniProt P51449)
Construct: His-tag (N); TurboTEV protease cleavage site (ENLYFQG) (N)
assayName: RORγt ThermoFluor assay (thermal shift, binding affinity KD)
Binarize Kd at 40 nM; below is MET, at or above is NOT MET.

compound	assayedSystem	classification
Cc1ccc(C(O)(c2ccc3nc(N4CCC4)c(Cc4ccc(C(F)(F)F)cc4)c(Cl)c3c2)c2cnnn2C)c(C)n1 (single isomer, unassigned) [Example 140b]	wild type human RORγt ligand binding domain (RORyt LBD) (Homo sapiens, UniProt P51449)	NOT MET
COc1nc2ccc(C(O)(c3cnc(C)n3C)c3cnc(C)n3C)cc2c(Cl)c1Cc1ccc(C(F)(F)F)nc1 [Example 45]	wild type human RORγt ligand binding domain (RORyt LBD) (Homo sapiens, UniProt P51449)	MET
Cc1ccc(C(O)(c2ccc3nc(Cl)c(Cc4ccc(C(F)(F)F)cc4)c(Cl)c3c2)c2cnnn2C)c(C)n1 (stereo not drawn) [Example 139]	wild type human RORγt ligand binding domain (RORyt LBD) (Homo sapiens, UniProt P51449)	MET
Cn1cncc1C(O)(c1ccc(C(F)(F)F)nc1)c1ccc2nc(C(F)(F)F)c(Cc3ccccc3)c(O)c2c1 (stereo not drawn) [Example 107]	wild type human RORγt ligand binding domain (RORyt LBD) (Homo sapiens, UniProt P51449)	NOT MET
COc1nc2ccc(C(O)(c3ccc(F)cc3)c3cccnc3)cc2c(Cl)c1Cc1ccc(-n2cccn2)cc1 (single isomer, unassigned) [Example 158c]	wild type human RORγt ligand binding domain (RORyt LBD) (Homo sapiens, UniProt P51449)	MET
COc1nc2ccc(C(O)(c3ccc(C)nc3C)c3cnc(C)n3C)cc2c(Cl)c1Cc1ccc(C(F)(F)F)nc1 (single isomer, unassigned) [Example 42c]	wild type human RORγt ligand binding domain (RORyt LBD) (Homo sapiens, UniProt P51449)	MET
CC(=O)N1CCC(C(O)(c2ccccc2)c2ccc3nc(Cl)c(Cc4cncnc4)c(OC(F)F)c3c2)CC1 (racemic) [Example 73a]	wild type human RORγt ligand binding domain (RORyt LBD) (Homo sapiens, UniProt P51449)	NOT MET
CCc1nc2ccc(C(O)(c3cnnn3C)c3cnc(C)n3C)cc2c(Cl)c1Cc1ccc(C(F)(F)F)cc1 (single isomer, unassigned) [Example 25b]	wild type human RORγt ligand binding domain (RORyt LBD) (Homo sapiens, UniProt P51449)	MET
Cn1cncc1C(O)(c1ccc(C(F)(F)F)nc1)c1ccc2nc(C#N)c(Cc3ccc(F)cc3)c(C#N)c2c1 (single isomer, unassigned) [Example 53c]	wild type human RORγt ligand binding domain (RORyt LBD) (Homo sapiens, UniProt P51449)	NOT MET
COc1nc2ccc(C(O)(c3cnnn3C)C3CN(C)C3)cc2c(Cl)c1Cc1ccc(C(F)(F)F)cc1 (racemic) [Example 90a]	wild type human RORγt ligand binding domain (RORyt LBD) (Homo sapiens, UniProt P51449)	MET
COc1nc2ccc(C(O)(c3ccc(C#N)cc3)c3cncn3C)cc2c(Cl)c1Cc1ccc(-n2cncn2)cc1 (stereo not drawn) [Example 14a]	wild type human RORγt ligand binding domain (RORyt LBD) (Homo sapiens, UniProt P51449)	MET
Cc1nc2ccc(C(O)(c3ccc(C(F)(F)F)nc3)c3cncn3C)cc2c(Cl)c1Cc1ccc(C(F)(F)F)cc1 (single isomer, unassigned) [Example 26b]	wild type human RORγt ligand binding domain (RORyt LBD) (Homo sapiens, UniProt P51449)	MET
COc1c(Cc2ccccc2)c(C(F)(F)F)nc2ccc(C(O)(c3ccc(C(F)(F)F)nc3)c3cncn3C)cc12 (single isomer, unassigned) [Example 106c]	wild type human RORγt ligand binding domain (RORyt LBD) (Homo sapiens, UniProt P51449)	MET
Cc1nc2ccc(C(O)(c3ccnc(C(F)(F)F)c3)c3cncn3C)cc2c(Cl)c1Cc1ccc(C(F)(F)F)cc1 (single isomer, unassigned) [Example 30b]	wild type human RORγt ligand binding domain (RORyt LBD) (Homo sapiens, UniProt P51449)	NOT MET
CCc1nc2ccc(C(O)(c3ccc(C)nc3C)c3cnnn3C)cc2c(Cl)c1Cc1ccc(C(F)(F)F)cc1 (stereo not drawn) [Example 23a]	wild type human RORγt ligand binding domain (RORyt LBD) (Homo sapiens, UniProt P51449)	MET
COc1nc2ccc(C(O)(c3ccc(F)cc3)C3CCN(C(C)=O)CC3)cc2c(Cl)c1Cc1ccc(-n2cccn2)cc1 (single isomer, unassigned) [Example 157b]	wild type human RORγt ligand binding domain (RORyt LBD) (Homo sapiens, UniProt P51449)	MET
COc1nc2ccc(C(O)(c3ncccn3)c3cncn3C)cc2c(Cl)c1Cc1ccc(-n2cccn2)cc1 (single isomer, unassigned) [Example 131c]	wild type human RORγt ligand binding domain (RORyt LBD) (Homo sapiens, UniProt P51449)	NOT MET
COc1nc2ccc(C(O)(c3ccc(F)cc3)C3CCN(C(C)=O)CC3)cc2c(Cl)c1Cc1ccc(-n2cccn2)cc1 (single isomer, unassigned) [Example 157c]	wild type human RORγt ligand binding domain (RORyt LBD) (Homo sapiens, UniProt P51449)	NOT MET
COc1nc2ccc(C(O)(c3sc(C)nc3C)c3cnnn3C)cc2c(Cl)c1Cc1ccc(-n2cccn2)cc1 (single isomer, unassigned) [Example 21c]	wild type human RORγt ligand binding domain (RORyt LBD) (Homo sapiens, UniProt P51449)	MET
CC(=O)N1CCC(C(O)(c2cc(C)c3nc(C#N)c(Cc4ccc(-n5cccn5)cc4)c(C#N)c3c2)c2cncn2C)CC1 (single isomer, unassigned) [Example 81c]	wild type human RORγt ligand binding domain (RORyt LBD) (Homo sapiens, UniProt P51449)	NOT MET
COc1nc2ccc(C(O)(c3ccc(C#N)cc3)c3cncn3C)cc2c(C#N)c1Cc1ccc(-n2cncn2)cc1 (single isomer, unassigned) [Example 15c]	wild type human RORγt ligand binding domain (RORyt LBD) (Homo sapiens, UniProt P51449)	MET
COc1nc2ccc(C(O)(c3ccc(F)cc3)C3CCN(C(C)=O)CC3)cc2c(Cl)c1Cc1ccc(F)cc1 (single isomer, unassigned) [Example 51c]	wild type human RORγt ligand binding domain (RORyt LBD) (Homo sapiens, UniProt P51449)	NOT MET
